test system: UACC-257 melanoma; experiment: NCI tumour cell line growth inhibition, 48 h
quantity: GI50

Example results:
N#Cc1c(-c2ccccc2)cc(-c2ccccc2)n(CCCC(=O)NO)c1=O	1730 nM
COc1cc(-c2ccc(-c3ccc(C(=N)N)cc3)s2)cc(OC)c1OC	2020 nM
CCN(CC)Cc1cc(Nc2c3ccc(Cl)cc3nc3ccc(OC)cc23)ccc1O	2170 nM
O=C1C=CC(=O)c2cc3cc(CO)ccc3cc21	12000 nM
CCO/C=N/C1=C(C#N)C(c2ccc(OC)cc2)c2sc3c(F)cccc3c2O1 (stereo unspecified)	14800 nM

Query GI50 for Clc1ccc2c(c1)C(Br)c1cc(Cl)cc(Cl)c1-2 (stereo unspecified) > 100000 nM

Provenance of the data: PubChem BioAssay (NCI)
